target-desc: UniProtKB P14618
Sequence (P14618 whole entry): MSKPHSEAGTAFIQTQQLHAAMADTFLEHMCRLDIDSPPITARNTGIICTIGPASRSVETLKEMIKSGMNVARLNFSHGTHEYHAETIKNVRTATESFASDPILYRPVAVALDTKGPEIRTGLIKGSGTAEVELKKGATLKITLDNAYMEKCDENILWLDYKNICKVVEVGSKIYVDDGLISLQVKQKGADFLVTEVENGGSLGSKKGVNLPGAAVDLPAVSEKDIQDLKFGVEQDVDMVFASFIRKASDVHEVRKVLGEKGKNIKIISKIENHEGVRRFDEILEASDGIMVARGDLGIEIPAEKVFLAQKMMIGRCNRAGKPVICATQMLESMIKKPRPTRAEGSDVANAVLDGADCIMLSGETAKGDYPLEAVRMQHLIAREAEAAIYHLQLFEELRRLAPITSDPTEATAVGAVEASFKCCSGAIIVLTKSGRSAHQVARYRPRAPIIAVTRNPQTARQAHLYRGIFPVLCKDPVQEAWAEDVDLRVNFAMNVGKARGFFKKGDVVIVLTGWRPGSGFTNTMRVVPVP
experiment-summary: Activation of N-terminal His -tagged human PKM2 expressed in Escherichia coli BL21 using PEP as substrate measured at 30 secs intervals for between 3 and 6 mins by fluorescent pyruvate kinase-lactate dehydrogenase coupled assay
# label = Yes if AC50 < 3 µM else No

Ask: For Cc1ccc(S(=O)(=O)Nc2ccc(C3(O)CSC(=S)N3Cc3cccnc3)cc2)cc1 (centres undefined) , is the recorded AC50 below the cut-off of 3 µM?
Result: No

Ask: Here is the next molecule: O=S(=O)(Cc1ccccc1)Nc1ccc(C2(O)CSC(=S)N2Cc2cccnc2)cc1 (centres undefined)
Result: No

Ask: Here is the next molecule: O=S(=O)(Nc1ccc(C2(O)CSC(=S)N2Cc2cccnc2)cc1)c1cccc2cccnc12 (centres undefined)
Result: Yes

Ask: Here is the next molecule: COc1ncccc1CN1C(=S)SCC1(O)c1ccc(NS(=O)(=O)c2ccc3c(c2)OCCO3)cc1 (centres undefined)
Result: No

Ask: Here is the next molecule: Cc1cccc(S(=O)(=O)Nc2ccc(C3(O)CSC(=S)N3Cc3cccnc3)cc2)c1 (centres undefined)
Result: No

Ask: Here is the next molecule: O=S(=O)(Nc1ccc(C2(O)CSC(=S)N2Cc2cccnc2)cc1)c1ccc2ccccc2c1 (centres undefined)
Result: No

Ask: Here is the next molecule: O=S(=O)(Nc1ccc(C2(O)CSC(=S)N2Cc2cnc3ccccc3c2)cc1)c1ccc2c(c1)OCCO2 (centres undefined)
Result: Yes

Ask: Here is the next molecule: CS(=O)(=O)c1cccc(-c2ccc(CN3C(=S)SCC3(O)c3ccc(NS(=O)(=O)c4ccc5c(c4)OCCO5)cc3)cn2)c1 (centres undefined)
Result: No

Ask: Here is the next molecule: O=S(=O)(Nc1ccc(C2(O)CSC(=S)N2Cc2cnccn2)cc1)c1ccc2c(c1)OCCO2 (centres undefined)
Result: Yes

Ask: Here is the next molecule: O=S(=O)(Nc1ccc(C2(O)CSC(=S)N2Cc2cccnc2)cc1)c1ccc2c(c1)OCCO2 (centres undefined)
Result: No

Ask: Here is the next molecule: O=S(=O)(Nc1ccc(C2(O)CSC(=S)N2Cc2cccnc2)cc1)c1c[nH]c2ncccc12 (centres undefined)
Result: Yes

Ask: Here is the next molecule: O=S(=O)(Nc1ccc(C2(O)CSC(=S)N2CCc2cccnc2)cc1)c1ccc2c(c1)OCCO2 (centres undefined)
Result: No

Ask: Here is the next molecule: O=S(=O)(Nc1ccc(C2(O)CSC(=S)N2Cc2ccc3nccn3c2)cc1)c1ccc2c(c1)OCCO2 (centres undefined)
Result: No

Ask: Here is the next molecule: O=C1COc2ccc(S(=O)(=O)Nc3ccc(C4(O)CSC(=S)N4Cc4cccnc4)cc3)cc2N1 (centres undefined)
Result: No

Ask: Here is the next molecule: O=c1ccc2cc(S(=O)(=O)Nc3ccc(C4(O)CSC(=S)N4Cc4cccnc4)cc3)ccc2o1 (centres undefined)
Result: No

Ask: Here is the next molecule: COc1ccc(Cl)cc1S(=O)(=O)Nc1ccc(C2(O)CSC(=S)N2Cc2cccnc2)cc1 (centres undefined)
Result: No

Ask: Here is the next molecule: O=S(=O)(Nc1ccc(C2(O)CSC(=S)N2Cc2cccnc2)cc1)c1ccccc1F (centres undefined)
Result: No

Ask: Here is the next molecule: Cc1ccccc1S(=O)(=O)Nc1ccc(C2(O)CSC(=S)N2Cc2cccnc2)cc1 (centres undefined)
Result: Yes
